The values you see were collected from patent EP0863156A1.

target_of_assay: SRIF receptors (Rattus norvegicus)
Construct: expressed in transfected cells; host or cells: Saccharomyces cerevisiae strain LY364
Sequence (P30680 whole entry): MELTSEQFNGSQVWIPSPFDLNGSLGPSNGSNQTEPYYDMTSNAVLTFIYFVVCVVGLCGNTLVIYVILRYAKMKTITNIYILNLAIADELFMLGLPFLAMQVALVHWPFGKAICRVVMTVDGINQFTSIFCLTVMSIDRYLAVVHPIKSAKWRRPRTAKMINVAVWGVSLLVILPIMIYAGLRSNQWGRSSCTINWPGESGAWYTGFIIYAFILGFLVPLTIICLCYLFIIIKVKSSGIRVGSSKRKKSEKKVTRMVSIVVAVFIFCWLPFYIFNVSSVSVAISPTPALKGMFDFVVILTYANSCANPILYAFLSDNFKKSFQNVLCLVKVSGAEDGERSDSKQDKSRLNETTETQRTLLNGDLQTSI
test_protocol: Yeast bioassay for SRIF antagonist activity (zone of growth inhibition of LY364 cells growing in response to SRIF)
Type: cell-based
condition_context: sample type 4th iteration; 10 µL of 5 mg/mL on filter disk; S-14 10 nM; read after 3 days; compare only within same experiment
Square brackets hold non-standard residues; d marks the D form. Peptide text beside a SMILES is read from it.
Here, each record is paired with measured Inhibition Zone (mm) data.
measure: Inhibition Zone (mm)

CC[C@@H](C)[C@@H](NC(=O)[C@@H](Cc1ccccc1)NC(=O)[C@@H](Cc1c[nH]cn1)NC(C)=O)C(=O)N[C@H](CCCNC(=N)N)C(=O)N[C@H](Cc1c[nH]c2ccccc12)C(=O)NCC(N)=O [His Phe Ile Arg Trp Gly] (Ac-[dH][dF][dI][dR][dW]G-NH2) :: 13
CC[C@@H](C)[C@@H](NC(=O)[C@@H](Cc1ccccc1)NC(=O)[C@@H](Cc1c[nH]cn1)NC(C)=O)C(=O)N[C@H](CCCNC(=N)N)C(=O)N[C@H](Cc1c[nH]c2ccccc12)C(=O)N[C@@H](C(N)=O)[C@H](C)O [Seq Id No. 19] (Ac-[dH][dF][dI][dR][dW][dT]-NH2) :: 14
CC[C@@H](C)[C@@H](NC(=O)[C@@H](Cc1ccccc1)NC(=O)[C@@H](Cc1c[nH]cn1)NC(C)=O)C(=O)N[C@H](CCCNC(=N)N)C(=O)N[C@H](Cc1c[nH]c2ccccc12)C(=O)N[C@H](Cc1c[nH]c2ccccc12)C(N)=O [Seq Id No. 25] (Ac-[dH][dF][dI][dR][dW][dW]-NH2) :: 16
CC[C@@H](C)[C@@H](NC(=O)[C@@H](Cc1ccccc1)NC(=O)[C@@H](Cc1c[nH]cn1)NC(C)=O)C(=O)N[C@H](CCCNC(=N)N)C(=O)N[C@H](Cc1c[nH]c2ccccc12)C(=O)N[C@H](Cc1ccccc1)C(N)=O [Peptide 1] (Ac-[dH][dF][dI][dR][dW][dF]-NH2) :: 18
CC[C@@H](C)[C@@H](NC(=O)[C@@H](Cc1ccccc1)NC(=O)[C@@H](Cc1c[nH]cn1)NC(C)=O)C(=O)N[C@H](CCCNC(=N)N)C(=O)N[C@H](Cc1c[nH]c2ccccc12)C(=O)N[C@H](CC(C)C)C(N)=O [Seq Id No. 18] (Ac-[dH][dF][dI][dR][dW][dL]-NH2) :: 15
CC[C@@H](C)[C@@H](NC(=O)[C@@H](Cc1c[nH]c2ccccc12)NC(=O)[C@@H](CCCNC(=N)N)NC(=O)[C@H](NC(=O)[C@@H](Cc1ccccc1)NC(=O)[C@@H](Cc1c[nH]cn1)NC(C)=O)[C@H](C)CC)C(N)=O [Seq Id No. 21] (Ac-[dH][dF][dI][dR][dW][dI]-NH2) :: 16
CC[C@@H](C)[C@@H](NC(=O)[C@@H](Cc1ccccc1)NC(=O)[C@@H](Cc1c[nH]cn1)NC(C)=O)C(=O)N[C@H](CCCNC(=N)N)C(=O)N[C@H](Cc1c[nH]c2ccccc12)C(=O)N[C@H](CC(N)=O)C(N)=O [Seq Id No. 23] (Ac-[dH][dF][dI][dR][dW][dN]-NH2) :: 15
CC[C@@H](C)[C@@H](NC(=O)[C@@H](Cc1ccccc1)NC(=O)[C@@H](Cc1c[nH]cn1)NC(C)=O)C(=O)N[C@H](CCCNC(=N)N)C(=O)N[C@H](Cc1c[nH]c2ccccc12)C(=O)N[C@H](CCSC)C(N)=O [Seq Id No. 24] (Ac-[dH][dF][dI][dR][dW][dM]-NH2) :: 18
CC[C@@H](C)[C@@H](NC(=O)[C@@H](Cc1ccccc1)NC(=O)[C@@H](Cc1c[nH]cn1)NC(C)=O)C(=O)N[C@H](CCCNC(=N)N)C(=O)N[C@H](Cc1c[nH]c2ccccc12)C(=O)N[C@H](Cc1ccc(O)cc1)C(N)=O [Seq Id No. 20] (Ac-[dH][dF][dI][dR][dW][dY]-NH2) :: 16

* * *

Catalogue of molecules with associated Inhibition Zone (mm)
target_of_assay: SRIF receptors (Rattus norvegicus)
Construct: expressed in transfected cells; host or cells: Saccharomyces cerevisiae strain LY364
test_protocol: Yeast bioassay for SRIF antagonist activity (zone of growth inhibition of LY364 cells growing in response to SRIF)
Assay type: cell-based
condition_context: sample type 4th iteration; 10 µL of 5 mg/mL on filter disk; S-14 10 nM; read after 3 days; compare only within same experiment
Square brackets hold non-standard residues; d marks the D form. Peptide text beside a SMILES is read from it.
measure: Inhibition Zone (mm)

CC[C@@H](C)[C@@H](NC(=O)[C@@H](Cc1ccccc1)NC(=O)[C@@H](Cc1c[nH]cn1)NC(C)=O)C(=O)N[C@H](CCCNC(=N)N)C(=O)N[C@H](Cc1c[nH]c2ccccc12)C(=O)N[C@H](CCC(N)=O)C(N)=O [Seq Id No. 26] (Ac-[dH][dF][dI][dR][dW][dQ]-NH2) :: 16
CC[C@@H](C)[C@@H](NC(=O)[C@@H](Cc1ccccc1)NC(=O)[C@@H](Cc1c[nH]cn1)NC(C)=O)C(=O)N[C@H](CCCNC(=N)N)C(=O)N[C@H](Cc1c[nH]c2ccccc12)C(=O)N[C@H](C)C(N)=O [Seq Id No. 22] (Ac-[dH][dF][dI][dR][dW][dA]-NH2) :: 15

* * *

target_of_assay: UniProt:P30680
test_protocol: cAMP accumulation in forskolin-stimulated GH4C1/SSTR2 cells (SPA radioimmunoassay)
Format: cell-based
Parameters: expressed in transfected cells; host or cells: GH4C1 rat pituitary tumor cells
condition_context: GH4-C1; test peptide 100 µM; percent reversal of SSTR2 activation by SRIF or MK678; 0% = forskolin plus agonist, 100% = forskolin alone; read-out: cAMP Assay Intrinsic activity
Bridge positions count the residues as written; N and C are the ends. Square brackets hold non-standard residues; d marks the D form. Peptide text beside a SMILES is read from it.
measure: Emax (%)

CC[C@@H](C)[C@@H](NC(=O)[C@@H](Cc1c[nH]c2ccccc12)NC(=O)[C@@H](Cc1c[nH]cn1)NC(C)=O)C(=O)N[C@H](CCCNC(=N)N)C(=O)N[C@H](Cc1ccccc1)C(=O)N[C@H](Cc1ccccc1)C(N)=O [Peptide 29, h-w-i-r-f-f] (Ac-[dH][dW][dI][dR][dF][dF]-NH2; N-terminus and C-terminus assumed) :: 21.3
CC[C@@H](C)[C@H]1NC(=O)[C@@H](Cc2ccccc2)NC(=O)[C@@H](Cc2c[nH]cn2)NC(=O)[C@@H](Cc2ccccc2)NC(=O)[C@@H](Cc2c[nH]c3ccccc23)NC(=O)[C@@H](CCCNC(=N)N)NC1=O [Peptide 35, h-f-i-r-w-f] (cyclo([dH][dF][dI][dR][dW][dF])) :: 122
CC[C@@H](C)[C@@H](NC(C)=O)C(=O)N[C@H](CCCNC(=N)N)C(=O)N[C@H](Cc1c[nH]c2ccccc12)C(=O)N[C@H](Cc1ccccc1)C(=O)N[C@H](Cc1c[nH]cn1)C(=O)N[C@H](Cc1ccccc1)C(N)=O [Peptide 33, i-r-w-f-h-f] (Ac-[dI][dR][dW][dF][dH][dF]-NH2; N-terminus and C-terminus assumed) :: 11.5
CC[C@@H](C)[C@@H](NC(=O)[C@@H](CCCNC(=N)N)NC(=O)[C@@H](Cc1c[nH]c2ccccc12)NC(=O)[C@@H](Cc1ccccc1)NC(=O)[C@@H](Cc1c[nH]cn1)NC(C)=O)C(=O)N[C@H](Cc1ccccc1)C(N)=O [Peptide 30, h-f-w-r-i-f] (Ac-[dH][dF][dW][dR][dI][dF]-NH2; N-terminus and C-terminus assumed) :: 12.9
CC[C@@H](C)[C@H]1NC(=O)[C@@H](Cc2ccccc2)NC(=O)[C@@H](Cc2c[nH]cn2)NC(=O)[C@@H](N)CSSC[C@@H](C(=O)O)NC(=O)[C@@H](Cc2ccccc2)NC(=O)[C@@H](Cc2c[nH]c3ccccc23)NC(=O)[C@@H](CCCNC(=N)N)NC1=O [Peptide 34, ss C-h-f-i-r-w-f-C] (H-C[dH][dF][dI][dR][dW][dF]C-OH; disulfide 1-8) :: 25.9
CC[C@@H](C)[C@@H](NC(=O)[C@@H](CCCNC(=N)N)NC(=O)[C@@H](Cc1ccccc1)NC(=O)[C@@H](Cc1c[nH]cn1)NC(C)=O)C(=O)N[C@H](Cc1c[nH]c2ccccc12)C(=O)N[C@H](Cc1ccccc1)C(N)=O [Peptide 31, h-f-r-i-w-f] (Ac-[dH][dF][dR][dI][dW][dF]-NH2; N-terminus and C-terminus assumed) :: 13
